Test system: Encephalomyocarditis virus
Assay: Antiviral activity against Encephalomyocarditis virus infected in CF-1 mouse assessed as host survival time ratio at 50 mg/kg, po administered via gavage at 28, 22, 2 hrs before and 2 hrs after virus inoculation
Format: functional
Classify: true (1) when Ratio is strictly less than 0.9; false (0) when Ratio is not.

{"compound": "CN(C)CCOc1ccc2sc3ccc(OCCN(C)C)cc3c2c1.Cl", "assignedCategory": "false (0)"}

Please indicate whether the reported Ratio of CN(C)CC(=O)c1ccc2oc3ccc(C(=O)CN(C)C)cc3c2c1.Cl is strictly below 0.9.
false (0)

Is 0.9 strictly greater than the compound's reported Ratio? compound: Cl.c1cc2oc3ccc(OCCN4CCCCC4)cc3c2cc1OCCN1CCCCC1
true (1)
